Biological target: EGFR (Homo sapiens, UniProt P00533)
Construct: Kinases are expressed as either kinase domains or full length constructs; made in house
Sequence (P00533 25-1210, species assumed): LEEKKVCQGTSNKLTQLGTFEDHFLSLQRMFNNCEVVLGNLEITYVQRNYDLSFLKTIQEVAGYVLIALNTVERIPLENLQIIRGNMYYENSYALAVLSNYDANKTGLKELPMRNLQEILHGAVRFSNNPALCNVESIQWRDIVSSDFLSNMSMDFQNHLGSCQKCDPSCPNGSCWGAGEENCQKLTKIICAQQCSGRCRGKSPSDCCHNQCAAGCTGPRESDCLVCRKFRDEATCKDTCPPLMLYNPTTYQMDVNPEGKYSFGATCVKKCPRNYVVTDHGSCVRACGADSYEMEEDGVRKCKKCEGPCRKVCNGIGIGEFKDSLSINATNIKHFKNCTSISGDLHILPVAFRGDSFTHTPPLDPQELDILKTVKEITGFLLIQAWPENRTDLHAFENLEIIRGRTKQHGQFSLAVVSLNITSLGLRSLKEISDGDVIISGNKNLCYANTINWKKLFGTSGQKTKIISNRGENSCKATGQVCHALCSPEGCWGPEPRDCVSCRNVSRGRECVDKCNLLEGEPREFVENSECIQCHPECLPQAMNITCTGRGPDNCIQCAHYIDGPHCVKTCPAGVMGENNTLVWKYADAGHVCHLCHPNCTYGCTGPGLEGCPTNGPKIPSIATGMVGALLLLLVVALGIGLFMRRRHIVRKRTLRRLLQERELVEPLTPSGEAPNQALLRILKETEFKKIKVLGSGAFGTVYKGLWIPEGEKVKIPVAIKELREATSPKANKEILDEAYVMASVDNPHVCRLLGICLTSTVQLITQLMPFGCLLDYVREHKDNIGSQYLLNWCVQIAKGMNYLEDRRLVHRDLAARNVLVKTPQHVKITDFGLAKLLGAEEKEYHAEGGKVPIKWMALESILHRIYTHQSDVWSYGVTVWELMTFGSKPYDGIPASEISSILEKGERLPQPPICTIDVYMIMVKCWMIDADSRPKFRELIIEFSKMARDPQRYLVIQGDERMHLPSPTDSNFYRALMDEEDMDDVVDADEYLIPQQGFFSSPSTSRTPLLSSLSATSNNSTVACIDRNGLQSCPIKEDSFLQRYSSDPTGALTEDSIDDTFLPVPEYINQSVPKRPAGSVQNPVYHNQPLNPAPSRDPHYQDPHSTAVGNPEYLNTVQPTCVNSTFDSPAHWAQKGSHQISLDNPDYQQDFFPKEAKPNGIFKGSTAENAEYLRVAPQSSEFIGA
Assay: Kinase inhibition assay (33P transfer), EGFR
Format: biochemical
Conditions: Table 2, class symbols A-E; read-out: EGFR-1
Entries and their IC50

Answered examples (5):
1) COc1cc(Nc2ncnc(-c3cccnc3Nc3cccc(C(C)=O)c3)n2)cc(OC)c1OC; > 9520 nM
2) COc1ccc(Nc2ncnc(Nc3ccc(F)c(F)c3)n2)cc1OC; 1110 to 6680 nM
3) COc1ccc(Nc2ncnc(Nc3ccc(N4CCCCC4)cc3)n2)cc1OC; 984 to 5900 nM
4) O=S(=O)(O)c1cccc(Nc2ncnc(Nc3cc(-c4ccco4)[nH]n3)n2)c1; < 1000 nM
5) COc1cc(Nc2ncnc(-c3cccnc3Nc3cccc(C(F)(F)F)c3)n2)cc(OC)c1OC; > 9030 nM

[ask] Which value of IC50 has been reported for Cc1nccc(-c2cccc(Nc3ncnc(Nc4ccc5c(cnn5Cc5ccccc5)c4)n3)c2)n1 in the records?
[reply] < 824 nM

[ask] Which value of IC50 has been reported for COC(=O)c1ccc(-c2cc(Nc3ncnc(NCc4ccco4)n3)[nH]n2)cc1 in the records?
[reply] > 11500 nM

[ask] Which value of IC50 has been reported for O=C(O)c1cccc(Nc2ncnc(-n3c(NCc4ccccc4)nc4ccccc43)n2)c1 in the records?
[reply] < 914 nM

[ask] Which value of IC50 has been reported for CNS(=O)(=O)Cc1ccc(Nc2ncnc(Nc3cc(-c4ccco4)[nH]n3)n2)cc1 in the records?
[reply] 938 to 5630 nM

[ask] Which value of IC50 has been reported for CNC(=O)c1cccc(Nc2ncnc(Nc3cc(-c4ccco4)[nH]n3)n2)c1 in the records?
[reply] < 1060 nM

* * *

Entries and their IC50
Target: Zap-70 (Homo sapiens)
Construct: Kinases are expressed as either kinase domains or full length constructs; made in house
Assay: Kinase inhibition assay (33P transfer), Zap-70
Format: biochemical
Settings: read-out: Zap-1

1. COc1cc(Nc2ncnc(Nc3ccc(OCC(=O)Nc4ccccc4)cc3)n2)cc(OC)c1OC; > 8.95 µM

[ask] Which value of IC50 has been reported for Nc1nc2ccccc2n1-c1ncnc(Nc2ccccn2)n1 in the records?
[reply] > 14.8 µM

[ask] Which value of IC50 has been reported for CC(C)(C)OC(=O)NCc1cccc(Nc2ncnc(Nc3cc(C(C)(C)C)n[nH]3)n2)c1 in the records?
[reply] > 10.3 µM

* * *

Target: Zap-70 (Homo sapiens, UniProt P43403)
Construct: Kinases are expressed as either kinase domains or full length constructs; made in house
Sequence (P43403 whole entry, species assumed, the tested form may be a part): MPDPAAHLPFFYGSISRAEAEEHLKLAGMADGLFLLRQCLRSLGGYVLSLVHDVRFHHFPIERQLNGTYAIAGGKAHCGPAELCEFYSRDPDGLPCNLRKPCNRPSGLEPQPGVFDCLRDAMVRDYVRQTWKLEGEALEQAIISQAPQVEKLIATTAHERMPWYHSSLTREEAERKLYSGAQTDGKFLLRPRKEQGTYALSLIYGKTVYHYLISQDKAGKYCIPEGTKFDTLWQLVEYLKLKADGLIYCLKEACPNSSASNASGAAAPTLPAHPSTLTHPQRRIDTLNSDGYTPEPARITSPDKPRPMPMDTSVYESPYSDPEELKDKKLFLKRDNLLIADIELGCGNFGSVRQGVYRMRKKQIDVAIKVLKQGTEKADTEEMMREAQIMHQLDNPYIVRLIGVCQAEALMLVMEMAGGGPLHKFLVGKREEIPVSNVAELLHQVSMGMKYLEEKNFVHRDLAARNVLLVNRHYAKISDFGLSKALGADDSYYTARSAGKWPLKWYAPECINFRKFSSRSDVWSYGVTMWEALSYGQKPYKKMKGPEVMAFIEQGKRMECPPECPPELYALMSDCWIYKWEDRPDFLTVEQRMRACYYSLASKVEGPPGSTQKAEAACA
Test: Kinase inhibition assay (33P transfer), Zap-70
Type: biochemical
Conditions: read-out: Zap-1
Entries and their IC50

Answered examples (4):
1. COc1cc(Nc2ncnc(-n3c(NC4CCCc5ccccc54)nc4ccccc43)n2)cc(OC)c1OC (centres unmarked) [Compound 1043]; > 8.59 µM
2. COc1cc(OC)nc(Nc2ncnc(-n3c(=O)[nH]c4ccccc43)n2)n1; > 12.3 µM
3. COc1cc(Nc2ncnc(-c3cccnc3NCCCN)n2)cc(OC)c1OC; > 10.9 µM
4. COc1cc(C)c(Nc2ncnc(Nc3cc(-c4ccccc4)n[nH]3)n2)cc1OC; > 11.2 µM

[ask] Which value of IC50 has been reported for CN(c1cccc(Cl)c1)c1ncnc(Nc2ccccc2)n1 in the records?
[reply] > 14.4 µM

[ask] Which value of IC50 has been reported for Cc1ccc2c(c1)CCCN2c1ncnc(Nc2cccc(-c3cnco3)c2)n1 in the records?
[reply] > 11.7 µM

[ask] Which value of IC50 has been reported for CN(c1cccc(Cl)c1)c1ncnc(NCCOCCO)n1 in the records?
[reply] > 13.9 µM

[ask] Which value of IC50 has been reported for Fc1ccc(Nc2ncnc(Nc3ccc4[nH]ncc4c3)n2)cc1Cl in the records?
[reply] 1.12 to 6.75 µM
